These data points were gathered from paper PMC11724289.

Molecular target: T1, Tgo-H4 (RT-H4) DNA polymerase (UniProt P56689 1-773, V93Q;I114T;D141A;E143A;S383K;E429G;F445L;A485L;F493V;Y496H;Y497M;Y499F;A500E;K50 …)
T1 sequence: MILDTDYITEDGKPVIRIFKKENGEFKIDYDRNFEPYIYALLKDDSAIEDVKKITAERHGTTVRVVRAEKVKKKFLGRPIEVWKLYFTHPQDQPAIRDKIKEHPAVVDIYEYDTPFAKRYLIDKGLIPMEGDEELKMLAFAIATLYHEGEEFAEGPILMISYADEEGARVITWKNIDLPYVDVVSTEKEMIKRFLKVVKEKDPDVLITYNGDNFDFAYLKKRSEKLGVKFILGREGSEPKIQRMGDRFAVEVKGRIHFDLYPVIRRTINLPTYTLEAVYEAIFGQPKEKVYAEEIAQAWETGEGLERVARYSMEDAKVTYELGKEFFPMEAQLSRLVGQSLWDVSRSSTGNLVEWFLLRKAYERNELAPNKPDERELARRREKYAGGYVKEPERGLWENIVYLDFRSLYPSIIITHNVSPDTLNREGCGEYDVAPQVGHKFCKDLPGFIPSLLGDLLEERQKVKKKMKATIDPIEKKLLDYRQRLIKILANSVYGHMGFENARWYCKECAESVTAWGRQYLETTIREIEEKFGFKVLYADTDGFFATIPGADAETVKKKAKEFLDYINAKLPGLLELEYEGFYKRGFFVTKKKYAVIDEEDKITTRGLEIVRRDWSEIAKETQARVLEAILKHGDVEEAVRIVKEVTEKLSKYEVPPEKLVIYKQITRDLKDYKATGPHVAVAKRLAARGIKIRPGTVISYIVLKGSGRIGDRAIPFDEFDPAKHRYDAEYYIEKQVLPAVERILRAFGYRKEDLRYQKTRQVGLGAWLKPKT
Experiment: fluorescence polarization; 2 mM MgSO4; apparent KD, Hill slope 1.66; FP: 1x ThermoPol (20 mM Tris-HCl, 10 mM (NH4)2SO4, 10 mM KCl, 2 mM MgSO4, 0.1% Triton X-100, pH 8.8), 25 C, 20 min, 5 nM labeled primer
Conditions: protein: recombinant; label: 5'-6-FAM on primer; 5' overhang 6 nt on template; 10-nt duplex
EXPERIMENTAL_READOUT: pKd
FYI, pKd means -log10 of a concentration in mol per litre.

Prompt: Recorded pKd of DNA primer/DNA template (FP) (dsDNA) DNA 1: GACCACGGCC DNA 2: AACTGTGGCCGTGGTC , please.
Completion: 8.00
